Below, each entry is listed alongside its reported MIC.
test system: Staphylococcus aureus; experiment: Antibacterial activity against fluoroquinolone-resistant Staphylococcus aureus 1095; format: functional
MEASURED ATTRIBUTE: MIC (µg/mL)

{"columns": ["MOLECULE", "VALUE UNITS", "BOUND SIGN", "ENDPOINT RESULT"],
 "data": [
  ["COc1ccc2nccc([C@@H](O)CC[C@@H]3CCN(C4CC(c5ccccc5C(F)(F)F)C4)C[C@@H]3C(=O)O)c2c1 (stereo not given in full)", "µg/mL", "=", 0.25],
  ["COc1ccc2nccc([C@@H](O)CC[C@@H]3CCN(C4CC(c5c(F)ccc(F)c5OC)C4)C[C@@H]3C(=O)O)c2c1 (stereo not given in full)", "µg/mL", "≤", 0.0625],
  ["COc1ccc2ncc(F)c([C@@H](O)CC[C@@H]3CCN(CCSc4cccs4)C[C@@H]3C(=O)O)c2c1", "µg/mL", "=", 0.125],
  ["COc1ccc2nccc([C@@H](O)CC[C@@H]3CCN(C4CC(c5cccc(F)c5)C4)C[C@@H]3C(=O)O)c2c1 (stereo not given in full)", "µg/mL", "=", 0.125],
  ["COc1ccc2nccc([C@@H](O)CC[C@@H]3CCN(C4CC(c5cccc(SC)c5)C4)C[C@@H]3C(=O)O)c2c1 (stereo not given in full)", "µg/mL", "=", 8],
  ["COc1ccc2nccc([C@@H](O)CC[C@@H]3CCN(C4CC(c5ccccc5F)C4)C[C@@H]3C(=O)O)c2c1 (stereo not given in full)", "µg/mL", "≤", 0.0625],
  ["COc1ccc2nccc([C@@H](O)CC[C@@H]3CCN(C4CC(c5ncc(C)o5)C4)C[C@@H]3C(=O)O)c2c1 (stereo not given in full)", "µg/mL", "=", 8],
  ["COc1ccc2nccc([C@@H](O)CC[C@@H]3CCN(C/C=C/c4ccccc4)C[C@@H]3C(=O)O)c2c1", "µg/mL", "=", 1],
  ["COc1ccc2nccc([C@@H](O)CC[C@@H]3CCN(C4CC(c5ccnc(C)n5)C4)C[C@@H]3C(=O)O)c2c1 (stereo not given in full)", "µg/mL", ">", 64],
  ["COc1ccc2nccc([C@@H](O)CC[C@@H]3CCN(C4CC(c5ccn(C)n5)C4)C[C@@H]3C(=O)O)c2c1 (stereo not given in full)", "µg/mL", ">", 64],
  ["COc1ccc2nccc([C@@H](O)CC[C@@H]3CCN(C4CC(c5ccc(C#N)cc5)C4)C[C@@H]3C(=O)O)c2c1 (stereo not given in full)", "µg/mL", ">", 64],
  ["COc1ccc2nccc([C@@H](O)CC[C@@H]3CCN(C4CC(c5cc(Br)ccc5F)C4)C[C@@H]3C(=O)O)c2c1 (stereo not given in full)", "µg/mL", "=", 0.25],
  ["COc1ccc2nccc([C@@H](O)CC[C@@H]3CCN(C4CC(c5cc(F)ccc5C(F)(F)F)C4)C[C@@H]3C(=O)O)c2c1 (stereo not given in full)", "µg/mL", "=", 0.5],
  ["COc1ccc2nccc([C@@H](O)CC[C@@H]3CCN(C4CC(c5ccc(Cl)cc5F)C4)C[C@@H]3C(=O)O)c2c1 (stereo not given in full)", "µg/mL", "=", 1],
  ["COc1ccc2nccc([C@@H](O)CC[C@@H]3CCN(C4CC(c5cccc(C#N)c5)C4)C[C@@H]3C(=O)O)c2c1 (stereo not given in full)", "µg/mL", "=", 16],
  ["COc1ccc2nccc([C@@H](O)CC[C@@H]3CCN(C4CC(c5ccccc5OC)C4)C[C@@H]3C(=O)O)c2c1 (stereo not given in full)", "µg/mL", "=", 1],
  ["COc1ccc2nccc([C@@H](O)CC[C@@H]3CCN(C4CC(c5c(F)ccc(Cl)c5F)C4)C[C@@H]3C(=O)O)c2c1 (stereo not given in full)", "µg/mL", "=", 0.25],
  ["COc1ccc2nccc([C@@H](O)CC[C@@H]3CCN(C4CC(c5c(F)cccc5C(F)(F)F)C4)C[C@@H]3C(=O)O)c2c1 (stereo not given in full)", "µg/mL", "=", 2],
  ["COc1ccc2nccc([C@@H](O)CC[C@@H]3CCN(C4CC(c5c(F)ccc(F)c5F)C4)C[C@@H]3C(=O)O)c2c1 (stereo not given in full)", "µg/mL", "≤", 0.0625],
  ["COc1ccc2nccc([C@@H](O)CC[C@@H]3CCN(C4CC(c5cc(F)c(Cl)cc5F)C4)C[C@@H]3C(=O)O)c2c1 (stereo not given in full)", "µg/mL", "=", 1],
  ["COc1ccc2nccc([C@@H](O)CC[C@@H]3CCN(C4CC(c5c(F)cccc5OC)C4)C[C@@H]3C(=O)O)c2c1 (stereo not given in full)", "µg/mL", "=", 2],
  ["COc1ccc2nccc([C@@H](O)CC[C@@H]3CCN(C4CC(c5cc(C#N)ccc5F)C4)C[C@@H]3C(=O)O)c2c1 (stereo not given in full)", "µg/mL", "=", 8],
  ["COc1ccc2nccc([C@@H](O)CC[C@@H]3CCN(C4CC(c5cccc(OC)c5F)C4)C[C@@H]3C(=O)O)c2c1 (stereo not given in full)", "µg/mL", "=", 64],
  ["COc1ccc2nccc([C@@H](O)CC[C@@H]3CCN(C4CC(c5ccno5)C4)C[C@@H]3C(=O)O)c2c1 (stereo not given in full)", "µg/mL", "=", 8],
  ["COc1ccc2nccc([C@@H](O)CC[C@@H]3CCN(C4CC(c5cc(F)cc(F)c5F)C4)C[C@@H]3C(=O)O)c2c1 (stereo not given in full)", "µg/mL", "=", 0.125],
  ["COc1ccc(F)c(C2CC(N3CC[C@@H](CC[C@H](O)c4ccnc5ccc(OC)cc45)[C@@H](C(=O)O)C3)C2)c1 (stereo not given in full)", "µg/mL", "=", 4],
  ["COc1ccc2nccc([C@@H](O)CC[C@@H]3CCN(CCSc4cccs4)C[C@@H]3C(=O)O)c2c1", "µg/mL", "=", 0.1],
  ["COc1ccc2nccc([C@@H](O)CC[C@@H]3CCN(C4CC(c5cccc(Cl)c5F)C4)C[C@@H]3C(=O)O)c2c1 (stereo not given in full)", "µg/mL", "≤", 0.0625],
  ["COc1ccc2nccc([C@@H](O)CC[C@@H]3CCN(C4CC(c5ccc(C(F)(F)F)cc5F)C4)C[C@@H]3C(=O)O)c2c1 (stereo not given in full)", "µg/mL", "=", 4],
  ["COc1ccc2nccc([C@@H](O)CC[C@@H]3CCN(C4CC(c5ccc(F)cc5F)C4)C[C@@H]3C(=O)O)c2c1 (stereo not given in full)", "µg/mL", "=", 0.25]
]}

Value source: ChEMBL document CHEMBL2380208
